target: full-length human PHD1 (selectivity versus full-length human PHD2) (Homo sapiens, UniProt Q96KS0); construct: purchased Active Motif (Carlsbad, CA, USA) 81064; host or cells: baculovirus expression system; test: TR-FRET assay of PHD enzymes (IC50; Ki by Cheng-Prusoff; selectivity as ratio of Kis); assay type: biochemical; conditions: ratio of Kis in the PHD1 and PHD2 TR-FRET assays; Ki=IC50/(1+[2-OG]/Km), 1 uM 2-OG
Sequence (Q96KS0 whole entry): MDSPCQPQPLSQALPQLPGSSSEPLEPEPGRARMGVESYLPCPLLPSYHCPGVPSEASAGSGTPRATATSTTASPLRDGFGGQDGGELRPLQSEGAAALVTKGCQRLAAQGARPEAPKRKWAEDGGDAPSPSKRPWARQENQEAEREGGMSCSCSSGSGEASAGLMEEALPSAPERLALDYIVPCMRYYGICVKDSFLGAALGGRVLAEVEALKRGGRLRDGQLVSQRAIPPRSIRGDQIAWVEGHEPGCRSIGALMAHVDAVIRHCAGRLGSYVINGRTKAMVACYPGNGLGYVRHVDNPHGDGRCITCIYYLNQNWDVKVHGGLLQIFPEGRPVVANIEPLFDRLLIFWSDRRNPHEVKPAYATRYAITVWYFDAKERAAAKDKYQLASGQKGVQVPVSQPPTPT
measurement name: Selectivity of PHD1 over PHD2

Ask: Report Selectivity of PHD1 over PHD2 for "O=C(NC[C@H](O)C(=O)O)c1ncc(-c2cccc(Cl)c2)cc1O" please.
Reply: ~11 fold

Ask: Report Selectivity of PHD1 over PHD2 for "O=C(NCC1(C(=O)O)CCC1)c1ncc(-c2cccc(Cl)c2)cc1O" please.
Reply: ~6 fold

Ask: Report Selectivity of PHD1 over PHD2 for "O=C(NCC1(C(=O)O)CC1)c1ncc(-c2ccc3ccccc3c2)cc1O" please.
Reply: ~219 fold

Ask: Report Selectivity of PHD1 over PHD2 for "O=C(NCC1(C(=O)O)CCOCC1)c1ncc(-c2cnn(-c3ccccc3)c2)cc1O" please.
Reply: ~51 fold

Ask: Report Selectivity of PHD1 over PHD2 for "O=C(NC[C@@H](O)C(=O)O)c1ncc(-c2ccc3ccccc3c2)cc1O" please.
Reply: ~100 fold

----------
target: full-length human PHD1 (selectivity versus full-length human PHD2) (Homo sapiens, UniProt Q96KS0); construct: purchased Active Motif (Carlsbad, CA, USA) 81064; host or cells: baculovirus expression system; assay: TR-FRET assay of PHD enzymes (IC50; Ki by Cheng-Prusoff; selectivity as ratio of Kis); format: biochemical; settings: ratio of Kis in the PHD1 and PHD2 TR-FRET assays; Ki=IC50/(1+[2-OG]/Km), 1 uM 2-OG
Assign Selectivity of PHD1 over PHD2 to each entry below.

Ask: Report Selectivity of PHD1 over PHD2 for "O=C(NCC1(C(=O)O)CCC1)c1ncc(-c2cnn(-c3ccccc3)c2)cc1O" please.
Reply: ~36 fold

Ask: Report Selectivity of PHD1 over PHD2 for "O=C(NCC1(C(=O)O)CC1)c1ncc(-c2cccc(Cl)c2)cc1O" please.
Reply: ~338 fold

Ask: Report Selectivity of PHD1 over PHD2 for "O=C(NCC1(C(=O)O)CCCCC1)c1ncc(-c2cnn(-c3ccccc3)c2)cc1O" please.
Reply: ~2 fold

Ask: Report Selectivity of PHD1 over PHD2 for "O=C(NC[C@H](O)C(=O)O)c1ncc(-c2cnn(-c3ccccc3)c2)cc1O" please.
Reply: ~29 fold

Ask: Report Selectivity of PHD1 over PHD2 for "O=C(NCC1(C(=O)O)CCCC1)c1ncc(-c2cnn(-c3ccccc3)c2)cc1O" please.
Reply: ~8 fold

Ask: Report Selectivity of PHD1 over PHD2 for "O=C(NC[C@H](O)C(=O)O)c1ncc(-c2ccc3ccccc3c2)cc1O" please.
Reply: ~16 fold

Ask: Report Selectivity of PHD1 over PHD2 for "O=C(NCC1(C(=O)O)CC1)c1ncc(-c2cnn(-c3ccccc3)c2)cc1O" please.
Reply: ~61 fold

Ask: Report Selectivity of PHD1 over PHD2 for "O=C(NCC1(C(=O)O)CCC1)c1ncc(-c2ccc3ccccc3c2)cc1O" please.
Reply: ~1258 fold

Ask: Report Selectivity of PHD1 over PHD2 for "O=C(NC[C@@H](O)C(=O)O)c1ncc(-c2cnn(-c3ccccc3)c2)cc1O" please.
Reply: ~42 fold

Ask: Report Selectivity of PHD1 over PHD2 for "O=C(O)CC1(NC(=O)c2ncc(-c3cnn(-c4ccccc4)c3)cc2O)CC1" please.
Reply: ~10 fold

Ask: Report Selectivity of PHD1 over PHD2 for "O=C(O)CC1(NC(=O)c2ncc(-c3cnn(-c4ccccc4)c3)cc2O)CCC1" please.
Reply: ~2 fold

Ask: Report Selectivity of PHD1 over PHD2 for "O=C(NC[C@@H](O)C(=O)O)c1ncc(-c2cccc(Cl)c2)cc1O" please.
Reply: ~13 fold

src = patent US20240327376A1
